- TGT: Sodium-dependent dopamine transporter (Homo sapiens, UniProt Q01959)
- Sequence (Q01959 whole entry): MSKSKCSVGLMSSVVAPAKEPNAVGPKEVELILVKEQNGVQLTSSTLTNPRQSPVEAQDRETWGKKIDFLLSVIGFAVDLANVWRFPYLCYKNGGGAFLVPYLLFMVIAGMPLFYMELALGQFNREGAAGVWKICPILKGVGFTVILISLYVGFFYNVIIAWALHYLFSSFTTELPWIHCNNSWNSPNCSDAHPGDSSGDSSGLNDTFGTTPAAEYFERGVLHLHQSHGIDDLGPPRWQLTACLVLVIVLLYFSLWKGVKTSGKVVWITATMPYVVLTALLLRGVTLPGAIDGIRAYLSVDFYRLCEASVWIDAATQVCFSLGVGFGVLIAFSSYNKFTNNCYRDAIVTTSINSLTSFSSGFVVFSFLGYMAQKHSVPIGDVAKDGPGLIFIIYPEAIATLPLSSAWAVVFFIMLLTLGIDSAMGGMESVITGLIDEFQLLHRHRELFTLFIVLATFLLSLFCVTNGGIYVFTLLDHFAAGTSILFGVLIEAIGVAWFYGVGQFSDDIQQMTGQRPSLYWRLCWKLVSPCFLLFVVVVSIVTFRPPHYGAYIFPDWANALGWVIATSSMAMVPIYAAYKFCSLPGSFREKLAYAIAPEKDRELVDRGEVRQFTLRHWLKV
- METHOD SUMMARY: Inhibition of human DAT expressed in CHO cells assessed as reduction of [3H]-DA re-uptake preincubated for 10 mins followed by [3H]-DA addition measured after 10 mins by liquid scintillation counting
- Type: cell-based
pIC50: −log10 of the molar value.
PARAMETER MEASURED: pIC50

1. CN(C)CC(c1ccc(OC(=O)c2ccccc2)cc1)C1(O)CCCCC1 (stereo unspecified) = 6.09

###

- METHOD SUMMARY: Ratio of drug uptake in Sprague-Dawley rat brain to plasma at 1 mg/kg, sc by HPLC analysis
- Format: ADME, organism-based
- CONDITION SUMMARY: read-out: BPR
PARAMETER MEASURED: Kp

1) C#Cc1ccc(C2CN3CCCC3c3ccccc32)cc1 (racemic) = 7.5
